target: Mitogen-activated protein kinase kinase kinase 2 (Homo sapiens); assay: wildtype MEKK2 PB1-MEK5 interaction enhancers or blockers – biochemical, single concentration, multiplex bead flow cytometry, confirmation (AID 1892); settings: Alexa488-MEK5 binding to MEKK2 WT, at 10 µM, actives lie on both sides
Screen size: about 5,900 compounds; about 140 (2.4%) were called active. Many of the other results were omitted from the sample, so actives are more common in it than they were.

molecule: CCCN(CCC)c1nc2c(C)cccn2c(=O)c1/C=C1/SC(=S)N(Cc2ccco2)C1=O
binding response (% of control) (%): 85

molecule: CC(=O)N1CCN(S(=O)(=O)c2ccc(C)c([N+](=O)[O-])c2)C1C(C)C (stereo not given)
binding response (% of control) (%): 97

molecule: O=C(O)c1cccnc1NC1CCCC1
binding response (% of control) (%): 109

molecule: COc1ccccc1CC(=O)Nc1ccc([N+](=O)[O-])cc1OC
binding response (% of control) (%): 100

molecule: CCn1cc(CN2CCC(C(=O)Nc3cccc(-c4cccc(Cl)c4)c3)CC2)cn1
binding response (% of control) (%): 182

molecule: CCCc1nnc(SCC(=O)N2C(C)CCCC2C)n1CC (stereo not given)
binding response (% of control) (%): 110

molecule: COc1cc(Br)c(-c2sc(Nc3ccccc3)n[n+]2-c2ccccc2)cc1OC
binding response (% of control) (%): 134

molecule: Cc1ccccc1OCC(=O)Nc1ccc(N2CCN(C(=O)C(C)C)CC2)c(Cl)c1
binding response (% of control) (%): 93

molecule: Cc1ccc(N(CCC(=O)O)S(=O)(=O)c2cccc(C(F)(F)F)c2)cc1
binding response (% of control) (%): 102

molecule: Cc1ccc(C(=O)N/C(=C/c2ccco2)C(=O)NCCc2c[nH]c3ccccc23)cc1C
binding response (% of control) (%): 101
